Biological target: T1, MICA*008 on MEL-JUSO cells (human, UniProt Q29983 24-317); also: test concentration or dose not given here
T1 chain: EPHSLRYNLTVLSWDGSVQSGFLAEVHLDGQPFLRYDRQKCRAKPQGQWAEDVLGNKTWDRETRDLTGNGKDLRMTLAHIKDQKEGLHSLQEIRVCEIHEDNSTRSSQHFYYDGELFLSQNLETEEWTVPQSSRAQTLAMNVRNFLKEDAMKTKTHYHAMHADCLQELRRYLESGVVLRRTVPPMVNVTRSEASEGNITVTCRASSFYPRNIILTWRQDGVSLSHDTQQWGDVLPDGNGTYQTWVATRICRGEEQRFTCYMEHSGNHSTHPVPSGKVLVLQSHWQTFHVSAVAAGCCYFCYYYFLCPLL
Experiment: cell-based or functional assay
MEASURED ENDPOINT: % Inhibition (%)
Give the number; % is assumed, so skip it.

The following binders have reported results that may help.
{"columns": ["BINDER", "% Inhibition, %"],
 "data": [
  ["1D5v12 (antibody, IgG1, V domains shown, humanized variant of 1D5) VH: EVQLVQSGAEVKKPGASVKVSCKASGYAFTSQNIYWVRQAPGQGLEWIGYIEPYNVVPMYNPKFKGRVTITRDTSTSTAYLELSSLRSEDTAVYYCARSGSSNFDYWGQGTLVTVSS VL: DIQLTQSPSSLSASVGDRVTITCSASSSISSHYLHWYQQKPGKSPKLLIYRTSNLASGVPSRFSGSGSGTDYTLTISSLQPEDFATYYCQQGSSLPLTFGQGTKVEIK", 44],
  ["15F11v2 (antibody, IgG1, V domains shown, humanized variant of 15F11) VH: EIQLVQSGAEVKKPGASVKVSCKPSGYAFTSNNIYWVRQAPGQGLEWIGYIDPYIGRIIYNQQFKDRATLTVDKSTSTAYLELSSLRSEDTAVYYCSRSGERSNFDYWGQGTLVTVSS VL: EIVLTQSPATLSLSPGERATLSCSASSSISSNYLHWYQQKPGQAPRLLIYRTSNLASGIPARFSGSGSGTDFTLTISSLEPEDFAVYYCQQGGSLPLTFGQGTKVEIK", 62],
  ["15F11v1 (antibody, IgG1, V domains shown, humanized variant of 15F11) VH: EVQLVQSGAEVKKPGASVKVSCKASGYAFTSNNIYWVRQAPGQGLEWIGYIDPYIGRIIYNQQFKDRVTITADTSTSTAYLELSSLRSEDTAVYYCSRSGERSNFDYWGQGTLVTVSS VL: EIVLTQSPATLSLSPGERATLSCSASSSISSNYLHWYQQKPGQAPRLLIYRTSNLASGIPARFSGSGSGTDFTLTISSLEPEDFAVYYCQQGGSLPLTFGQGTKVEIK", 4]
]}

Notebook: 1D5v8 (antibody, IgG1, V domains shown, humanized variant of 1D5) VH: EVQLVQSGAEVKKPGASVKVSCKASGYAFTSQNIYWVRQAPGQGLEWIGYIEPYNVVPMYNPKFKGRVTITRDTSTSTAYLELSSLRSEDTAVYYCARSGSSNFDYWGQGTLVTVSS VL: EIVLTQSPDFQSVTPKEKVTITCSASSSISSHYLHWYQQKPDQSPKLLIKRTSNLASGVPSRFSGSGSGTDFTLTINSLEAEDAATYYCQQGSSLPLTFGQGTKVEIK , % Inhibition read as 52

Reported % Inhibition ( 13A9v5 (antibody, IgG1, V domains shown, humanized variant of 13A9) VH: EVQLVQSGAEVKKPGSSVKVSCKASGYAFTNYLIEWVRQAPGQGLEWIGAINPGSGATNYNEKFKDRATLTADKSTNTAYMELSSLRSEDTAVYFCARFLGNYFDNWGQGTLVTVSS VL: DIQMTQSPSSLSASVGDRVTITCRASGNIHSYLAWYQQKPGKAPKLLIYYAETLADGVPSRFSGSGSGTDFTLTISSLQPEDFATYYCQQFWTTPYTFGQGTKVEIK ) = 4

Record 1D5v2 (antibody, IgG1, V domains shown, humanized variant of 1D5) VH: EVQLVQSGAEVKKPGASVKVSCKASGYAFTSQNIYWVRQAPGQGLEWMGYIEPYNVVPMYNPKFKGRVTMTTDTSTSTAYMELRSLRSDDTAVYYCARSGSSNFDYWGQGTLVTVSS VL: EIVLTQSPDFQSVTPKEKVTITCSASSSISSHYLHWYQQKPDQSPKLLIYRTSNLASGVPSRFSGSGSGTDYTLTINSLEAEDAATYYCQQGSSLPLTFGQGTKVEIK . Reported % Inhibition: 33

Entry 1D5v4 (antibody, IgG1, V domains shown, humanized variant of 1D5) VH: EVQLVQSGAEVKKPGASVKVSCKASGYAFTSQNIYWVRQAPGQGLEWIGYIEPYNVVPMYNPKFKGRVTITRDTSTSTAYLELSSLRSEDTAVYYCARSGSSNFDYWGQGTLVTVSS VL: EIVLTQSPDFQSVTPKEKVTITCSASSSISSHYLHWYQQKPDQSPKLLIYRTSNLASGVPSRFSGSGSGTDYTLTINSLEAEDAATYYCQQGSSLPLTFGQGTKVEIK — recorded % Inhibition = 43

What the record says about 15F11 (m IgG2a, CHO) (antibody, V domains shown) VH: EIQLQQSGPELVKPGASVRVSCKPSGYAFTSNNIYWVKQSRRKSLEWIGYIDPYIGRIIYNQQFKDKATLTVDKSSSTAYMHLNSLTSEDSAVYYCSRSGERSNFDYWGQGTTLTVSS VL: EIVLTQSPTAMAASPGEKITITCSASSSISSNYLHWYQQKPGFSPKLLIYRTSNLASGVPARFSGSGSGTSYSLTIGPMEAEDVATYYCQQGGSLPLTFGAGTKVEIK : % Inhibition is 69

Entry 1D5v9 (antibody, IgG1, V domains shown, humanized variant of 1D5) VH: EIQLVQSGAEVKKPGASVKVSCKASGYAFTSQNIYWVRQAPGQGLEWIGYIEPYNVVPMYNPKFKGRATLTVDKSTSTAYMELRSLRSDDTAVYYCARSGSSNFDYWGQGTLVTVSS VL: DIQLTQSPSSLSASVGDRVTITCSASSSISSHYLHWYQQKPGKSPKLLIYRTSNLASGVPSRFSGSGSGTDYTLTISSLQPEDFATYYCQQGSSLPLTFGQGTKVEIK , % Inhibition reported as 49

binder 1D5 (antibody, V domains shown, mouse variable domains; also called anti-MIC 1D5) VH: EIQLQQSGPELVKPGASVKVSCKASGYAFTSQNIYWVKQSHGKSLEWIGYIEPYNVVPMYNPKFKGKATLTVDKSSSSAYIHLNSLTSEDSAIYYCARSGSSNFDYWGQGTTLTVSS VL: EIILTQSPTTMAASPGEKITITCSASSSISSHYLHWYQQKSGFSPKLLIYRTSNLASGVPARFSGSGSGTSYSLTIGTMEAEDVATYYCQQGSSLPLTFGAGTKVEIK , % Inhibition observed: 69

Data origin, for the record: patent US20200055939A1
